Test system: UACC-62 melanoma
Test: NCI tumour cell line growth inhibition, 48 h
Value kind: TGI

Solved cases below.
O=C(CCc1ccc(O)c(O)c1)NCCc1ccccc1 : > 65.2 µM
C[C@@H]1CC[C@H]2[C@@H](C)C(OC/C=C/COC3O[C@@H]4O[C@@]5(C)CC[C@H]6[C@H](C)CC[C@@H]([C@H]3C)[C@@]46OO5)O[C@@H]3O[C@@]4(C)CC[C@@H]1[C@]32OO4 (stereo partly drawn) : > 100 µM
O=C(c1cc(Cl)cc(Cl)c1)N(Cc1cccnc1)C(=S)N(Cc1cccnc1)C(=O)c1cc(Cl)cc(Cl)c1 : > 100 µM

Pending compound:
*Q* Need TGI, item COC(C)(C)[C@@H]1CCCN1C1=C(C)C(=O)OC1
*A* > 100 µM

###

Reported TGI values are given for each entry in this list.
System: OVCAR-8 ovarian
Experiment: NCI tumour cell line growth inhibition, 48 h

Here's what some known entries look like.
O=C(NNC(=S)Nc1ccc(Cl)cc1)C12CC3CC(CC(C3)C1)C2 : > 44.6 µM
N#CC(c1ccccc1)N(CCc1ccccc1)C(=O)c1ccc(C(=O)N(CCc2ccccc2)C(C#N)c2ccccc2)cc1 (stereo unspecified) : 34.6 µM
C1=Nc2ccccc2Cn2nncc21 : > 100 µM

*Q* Please report the recorded TGI for COc1ccc(-c2[nH]c(-c3ccc(OC)cc3)c(-c3ccccn3)c2-c2ccccn2)cc1 .
*A* > 100 µM

*Q* Requested field: TGI. Item: CN1C(=S)CSc2ccccc21
*A* > 100 µM

*Q* Quick check: TGI of Cc1ccc(NC(=O)CCc2nnc3s/c(=C\c4cccc([N+](=O)[O-])c4)c(=O)n23)cc1 ?
*A* > 100 µM

*Q* TGI for COc1ccc(C2CC(c3ccc(NS(=O)(=O)c4cc([N+](=O)[O-])ccc4C)cc3)=NN2S(=O)(=O)c2cc([N+](=O)[O-])ccc2C)cc1 (stereo unspecified) ?
*A* > 100 µM

*Q* Any idea what its TGI is? The compound is CC(C)COC(=O)c1ccc(N=Cc2ccc(C=Nc3ccc(C(=O)OCC(C)C)cc3)cc2)cc1
*A* > 100 µM

*Q* Need TGI of Cc1ccc(S(=O)(=O)NN=C2C(C)(C)CC2(C)C)cc1 , thanks.
*A* > 100 µM

*Q* What value of measured TGI is listed for OCC(O)C(O)C(O)C(O)CNCCO/N=C1/C(c2c(O)[nH]c3ccccc23)=Nc2ccccc21 (stereo unspecified) ?
*A* > 50 µM

*Q* What does the record list as TGI for O=S(=O)(Nc1nccs1)c1ccc([As](=O)(O)O)cc1 ?
*A* > 100 µM

*Q* # query: TGI of entry O=S1(=O)OCCOS(=O)(=O)C1(Cl)Cl
*A* > 100 µM

*Q* Recorded TGI of Brc1c2c(c(Br)c3nsnc13)N=S=N2 , please.
*A* 79.7 µM

*Q* # query: TGI of entry N#CC(C#N)=Cc1ccc(C(O)P(=O)(O)O)cc1 (stereo unspecified)
*A* > 100 µM

*Q* Fill in the blank: the reported TGI of COc1ccc(C(=O)N2CCN(c3ccc4c(c3)OCC(=O)N4)CC2)cc1OC is ____.
*A* > 100 µM

*Q* Could you share which TGI value was measured for CC1(C)CCCC2CC2CCC(C)(C)C1=O (stereo unspecified) ?
*A* > 100 µM

*Q* Tell me the measured TGI of Cc1cc(N(CCC#N)CCC#N)ccc1/C=C1N=C(/C=C/c2ccccc2)N(c2ccc(S(N)(=O)=O)cc2)C\1=O , please.
*A* > 100 µM

*Q* What value of TGI has been recorded for this entry: Cc1c2oc3c(C)cnc(C(=O)NC4C(=O)NC(C(C)C)C(=O)N5CCCC5C(=O)N(C)CC(=O)N(C)C(C(C)C)C(=O)OC4C)c3nc-2c(C(=O)NC2C(=O)NC(C(C)C)C(=O)N3CCCC3C(=O)N(C)CC(=O)N(C)C(C(C)C)C(=O)OC2C)c(N)c1=O (stereo unspecified)
*A* > 44.5 µM

*Q* Which TGI is reported for this compound? Cc1nn(C(=O)c2ccc(Cl)cc2)c2c1C(c1ccccc1O)SC(N)=N2 (stereo unspecified)
*A* > 10 µM

*Q* Fill in: TGI of COC(O)C(=O)c1c2c(cc3c1CCC3)CCC2 (stereo unspecified) is ___
*A* > 100 µM

*Q* Return reported TGI; argument: CC(=O)Nc1c2sscc-2n(C)c1=O
*A* 1.36 µM

*Q* Which TGI value is on record for CCOC(=O)c1cc(C2=CCNC2=O)c(-c2cc(C)no2)[nH]1 ?
*A* > 100 µM

*Q* For COc1ccc(N=N/C(=N\NC(=O)c2cc(Br)ccc2O)c2ccc(N(CCC#N)CCC#N)cc2OC)cc1 , what is its reported TGI?
*A* > 150 mg/L

*Q* For Cc1ccc(NC(=O)CC(=O)N2N=C(N3CCCCC3)CC2c2ccccc2)cc1 (stereo unspecified) , what is its reported TGI?
*A* > 100 µM

*Q* Which measured TGI value corresponds to Cc1cc(O)c2c(c1)C(C1OC(CO)C(O)C(O)C1O)c1cc(O)cc(O)c1C2=O (stereo unspecified) ?
*A* > 100 µM
